# System: Escherichia coli TOP10
# measurementDescription: shrunken log2 fold change of peptide-encoding DNA abundance (4.5 h post-induction vs induction); higher = less antimicrobial activity (less host growth inhibition)
# protocolConditions: time post-induction: 4.5 h; library: site-saturation at positions 5, 18, 19, 20
shrunken log2 fold change listing for selected sequences.
Provide a numeric answer; units are not to be included.

{"residueSequence": "RRIRMRPPRLPRPRPRPVHSPRP", "shrunken log2 fold change": 0.0125}
{"residueSequence": "RRIRLRPPRLPRPRPRPNGRPRP", "shrunken log2 fold change": -0.192}
{"residueSequence": "RRIRQRPPRLPRPRPRPGLSPRP", "shrunken log2 fold change": 0.0405}
{"residueSequence": "RRIRRRPPRLPRPRPRPQIPPRP", "shrunken log2 fold change": 0.00964}
{"residueSequence": "RRIRFRPPRLPRPRPRPEILPRP", "shrunken log2 fold change": -0.0488}

query: Enter measured shrunken log2 fold change, system Escherichia coli TOP10, for the sequence shown: `RRIRWRPPRLPRPRPRPLGVPRP`
result: 0.459

query: Enter measured shrunken log2 fold change, system Escherichia coli TOP10, for the sequence shown: `RRIRDRPPRLPRPRPRPRNQPRP`
result: -0.00575

query: Enter measured shrunken log2 fold change, system Escherichia coli TOP10, for the sequence shown: `RRIRCRPPRLPRPRPRPYSKPRP`
result: -0.192

----------
# Test system: Escherichia coli TOP10
# measurementDescription: shrunken log2 fold change of peptide-encoding DNA abundance (4.5 h post-induction vs induction); higher = less antimicrobial activity (less host growth inhibition)
# protocolConditions: time post-induction: 4.5 h; library: site-saturation at positions 5, 18, 19, 20
shrunken log2 fold change listing for selected sequences.

Example sequences with recorded shrunken log2 fold change:
{"residueSequence": "RRIRERPPRLPRPRPRPRQMPRP", "shrunken log2 fold change": -0.000582}
{"residueSequence": "RRIRPRPPRLPRPRPRPWAFPRP", "shrunken log2 fold change": 0.144}

Then there is this sequence:
query: Supply measured shrunken log2 fold change of `RRIRCRPPRLPRPRPRPCGTPRP` in your reply.
result: -0.306

----------
# Test system: Escherichia coli TOP10;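 further: peptides expressed intracellularly from a pBAD plasmid library in pooled LB shake-flask culture, induced with 0.3% L-arabinose, DNA abundance read by NGS, three biological replicates, DESeq2 with apeglm shrinkage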
# measurementDescription: shrunken log2 fold change of peptide-encoding DNA abundance (4.5 h post-induction vs induction); higher = less antimicrobial activity (less host growth inhibition)
# protocolConditions: time post-induction: 4.5 h; library: site-saturation at positions 5, 18, 19, 20
measurementKind: shrunken log2 fold change
Provide a numeric answer; units are not to be included.

Example sequences with recorded shrunken log2 fold change:
{"residueSequence": "RRIRGRPPRLPRPRPRPQFMPRP", "testedSystem": "Escherichia coli TOP10", "value": 0.0535}
{"residueSequence": "RRIRHRPPRLPRPRPRPFTTPRP", "testedSystem": "Escherichia coli TOP10", "value": -0.0869}
{"residueSequence": "RRIRVRPPRLPRPRPRPYPTPRP", "testedSystem": "Escherichia coli TOP10", "value": -0.398}

query: Supply measured shrunken log2 fold change of `RRIRGRPPRLPRPRPRPSCPPRP` in your reply.
result: -0.12

query: Supply measured shrunken log2 fold change of `RRIRPRPPRLPRPRPRPYEQPRP` in your reply.
result: -0.116

query: Supply measured shrunken log2 fold change of `RRIRLRPPRLPRPRPRPIAAPRP` in your reply.
result: 0.272

query: Supply measured shrunken log2 fold change of `RRIRMRPPRLPRPRPRPPYWPRP` in your reply.
result: 0.37

query: Supply measured shrunken log2 fold change of `RRIRVRPPRLPRPRPRPAFRPRP` in your reply.
result: 0.186
